experimental target: B2 bradykinin receptor (Homo sapiens); also: assay procedure not described here
Sequence (P30411 whole entry): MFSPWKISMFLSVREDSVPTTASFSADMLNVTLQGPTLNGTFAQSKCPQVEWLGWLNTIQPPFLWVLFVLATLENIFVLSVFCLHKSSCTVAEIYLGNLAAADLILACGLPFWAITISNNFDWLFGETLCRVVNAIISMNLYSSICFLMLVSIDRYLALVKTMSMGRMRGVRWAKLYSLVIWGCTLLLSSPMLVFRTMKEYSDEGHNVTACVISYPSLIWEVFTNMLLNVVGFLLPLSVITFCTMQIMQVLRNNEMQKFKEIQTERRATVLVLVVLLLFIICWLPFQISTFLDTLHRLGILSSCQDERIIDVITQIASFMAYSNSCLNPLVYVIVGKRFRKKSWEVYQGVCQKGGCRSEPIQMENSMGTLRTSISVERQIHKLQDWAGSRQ
property measured: AC50

Output AC50 of CC(C)=CCC/C(C)=C/C=C/C(C)=C/C=C/C(C)=C/C=C/C=C(C)/C=C/C=C(C)/C=C/C=C(\C)CCC=C(C)C [LYCOPENE] > 30 µM

Assign AC50 to the following record: COC(=O)[C@H]1[C@H]2C[C@@H]3c4[nH]c5cc(OC)ccc5c4CCN3C[C@H]2C[C@@H](OC(=O)/C=C/c2cc(OC)c(OC)c(OC)c2)[C@@H]1OC [RESCINNAMINE] > 10 µM

Tell us which AC50 value is on record for Nc1nc(NC2CC2)c2ncn([C@H]3C=C[C@@H](CO)C3)c2n1 [ABACAVIR] > 30 µM

Indicate the recorded AC50 value for this molecule: O=C(NCCN1CCOCC1)c1ccc(Cl)cc1 [MOCLOBEMIDE] > 10 µM

Return AC50 for the following molecule: C[C@@H]1O[C@@H](O[C@@H]2C=C3CC[C@@H]4[C@H](CC[C@]5(C)[C@@H](c6ccc(=O)oc6)CC[C@]45O)[C@@]3(C)CC2)[C@H](O)[C@H](O)[C@H]1O [PROSCILLARIDIN] > 30 µM

Please report AC50 for the following molecule: Cc1ccc(-n2nccn2)c(C(=O)N2CCN(c3nc4cc(Cl)ccc4o3)CC[C@H]2C)c1 [SUVOREXANT] > 30 µM

Note AC50 for the molecule shown: O=C(O)[C@H](CC(=O)N1C[C@H]2CCCC[C@H]2C1)Cc1ccccc1 [MITIGLINIDE] > 10 µM

====

Task for the reader: assign each of the following compounds its reported AC50.
experimental target: Thromboxane A2 receptor (Homo sapiens); also: assay procedure not described here
Sequence (P21731 whole entry): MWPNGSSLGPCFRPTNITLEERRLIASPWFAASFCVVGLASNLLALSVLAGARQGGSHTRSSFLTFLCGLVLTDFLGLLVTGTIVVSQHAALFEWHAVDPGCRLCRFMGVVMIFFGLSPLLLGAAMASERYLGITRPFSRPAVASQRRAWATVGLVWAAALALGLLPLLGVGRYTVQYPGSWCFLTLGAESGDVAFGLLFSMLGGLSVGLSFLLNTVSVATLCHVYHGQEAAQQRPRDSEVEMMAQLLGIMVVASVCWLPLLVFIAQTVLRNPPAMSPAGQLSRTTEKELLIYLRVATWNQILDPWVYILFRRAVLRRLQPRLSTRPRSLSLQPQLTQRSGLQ
Format: functional, cell-based

Output measured AC50 for this item: CN(C)S(=O)(=O)c1ccc2c(c1)N(CCCN1CCC(CCO)CC1)c1ccccc1S2 15.7 µM

Give the measured AC50 for COc1cc([C@@H]2c3cc4c(cc3[C@H](O)[C@H]3COC(=O)[C@H]23)OCO4)cc(OC)c1OC > 30 µM

Annotate the compound CC[C@]1(O)C[C@H]2CN(CCc3c([nH]c4ccccc34)[C@@](C(=O)OC)(c3cc4c(cc3OC)N(C=O)[C@H]3[C@@](O)(C(=O)OC)[C@H](OC(C)=O)[C@]5(CC)C=CCN6CC[C@]43[C@@H]65)C2)C1 with its measured AC50. > 30 µM

Assign AC50 to the following record: COc1ccc2c(c1)N(C[C@H](C)CN(C)C)c1ccccc1S2 26 µM

Report AC50, nothing else, for this compound: CC[C@@H](C(N)=O)N1CCCC1=O > 30 µM

Give recorded AC50. OC[C@@H](O)[C@H](O)[C@@H](O)CO > 30 µM

Look up and report measured AC50 for this entry: C=CCc1ccccc1OCC(O)CNC(C)C (stereo unspecified) > 0.3 µM

Provide one value: measured AC50 of Oc1c(Cl)cc(Cl)c2cccnc12 > 30 µM

Tell me AC50 reported for CS(=O)(=O)c1ccc(C2=C(c3ccccc3)C(=O)OC2)cc1 > 30 µM

Tell us which AC50 value is on record for Cc1cccc(Nc2ccccc2C(=O)O)c1C > 30 µM

For the compound O=c1[nH]c(=O)n(C2CCCO2)cc1F (stereo unspecified) , give its measured AC50 value. > 30 µM

Look up and report measured AC50 for this entry: Cc1cn([C@H]2C=C[C@@H](CO)O2)c(=O)[nH]c1=O > 30 µM

State its AC50: O=[N+]([O-])c1cn2c(n1)OC[C@@H](OCc1ccc(OC(F)(F)F)cc1)C2 > 30 µM

Consider the compound COCc1c(C(C)C)nc(C(C)C)c(/C=C/[C@@H](O)C[C@@H](O)CC(=O)O)c1-c1ccc(F)cc1 . State its measured AC50. 20.1 µM

Return reported AC50. Input compound: Nc1ccncc1N > 30 µM

Answer with reported AC50 of CCOC(=O)[C@H](CCc1ccccc1)N[C@@H](C)C(=O)N1CC2(C[C@H]1C(=O)O)SCCS2 > 30 µM

Supply measured AC50 of N[C@H]1C(O)O[C@H](CO)[C@@H](O)[C@@H]1O (stereo partly specified) in your reply. > 30 µM

Return value of AC50 for input COCCCN1CCC(NC(=O)c2cc(Cl)c(N)c3c2OCC3)CC1 [PRUCALOPRIDE] , no commentary. > 30 µM

Please report AC50 for the following compound: CCCCCNC(=N)N/N=C/c1c[nH]c2ccc(OC)cc12 > 3 µM

Look up and report measured AC50 for this entry: CC(=O)OCC1=C(C(=O)O)N2C(=O)[C@@H](NC(=O)[C@H](N)c3ccccc3)[C@H]2SC1 > 30 µM

Please report AC50 for the following compound: COc1cc2nc(N3CCN(C(=O)c4ccco4)CC3)nc(N)c2cc1OC > 30 µM

Give the measured AC50 for CCOc1ccccc1C(N)=O [ETHENZAMIDE] > 30 µM

Output AC50 of C=CCN1C[C@H](C(=O)N(CCCN(C)C)C(=O)NCC)C[C@@H]2c3cccc4[nH]cc(c34)C[C@H]21 > 30 µM

Identify measured AC50 associated with CCOc1ccc(Cc2cc([C@@H]3O[C@H](CO)[C@@H](O)[C@H](O)[C@H]3O)ccc2Cl)cc1 > 30 µM

Hello, please tell me recorded AC50 for this one: CC1(C)NC(=O)N(c2ccc([N+](=O)[O-])c(C(F)(F)F)c2)C1=O [NILUTAMIDE] > 3 µM

Return value of AC50 for input NC(=O)C[C@H](N)C(=O)O , no commentary. > 30 µM

// Input: CN(C)CC(c1ccc(O)cc1)C1(O)CCCCC1 (stereo unspecified) . Output its AC50 only. > 30 µM

Let me know recorded AC50 for NCC(CC(=O)O)c1ccc(Cl)cc1 (stereo unspecified) , thanks. > 30 µM

Find the measured AC50 of CCN(CC)CCc1nc(-c2ccccc2)no1 and report it. > 30 µM

Item CCCCOC(=O)C(=O)[C@H]1[C@H](C)C[C@H]2[C@@H]3C[C@H](F)C4=CC(=O)C=C[C@]4(C)[C@H]3[C@@H](O)C[C@@]21C : provide AC50 > 30 µM

Tell me measured AC50 for Cc1oc(=O)oc1CN1CCN(c2cc3c(cc2F)c(=O)c(C(=O)O)c2n3C(C)S2)CC1 (stereo unspecified) please. > 30 µM

Respond only with AC50 recorded for N[C@@H](C(=O)N[C@@H]1C(=O)N2C(C(=O)O)=C(Cl)CC[C@H]12)c1ccccc1 [LORACARBEF ANHYDROUS] > 30 µM

Annotate the compound N=c1ccn2c(n1)O[C@H]1[C@H](O)[C@@H](CO)O[C@H]12 with its measured AC50. > 30 µM

Give AC50 for the following compound: CC(C)(C)C(=O)C(Oc1ccc(Cl)cc1)n1ccnc1 (stereo unspecified) > 30 µM

Please supply the value of reported AC50 for the item CC(C)(C)N1CCC(c2ccccc2)(c2ccccc2)CC1 > 30 µM

Using the record for Clc1ccc(C(OCCN2CCCCC2)c2ccccc2)cc1 (stereo unspecified) , state its measured AC50. 17 µM

====

experimental target: Alpha-2A adrenergic receptor (Homo sapiens); also: assay procedure not described here
Sequence (P08913 whole entry): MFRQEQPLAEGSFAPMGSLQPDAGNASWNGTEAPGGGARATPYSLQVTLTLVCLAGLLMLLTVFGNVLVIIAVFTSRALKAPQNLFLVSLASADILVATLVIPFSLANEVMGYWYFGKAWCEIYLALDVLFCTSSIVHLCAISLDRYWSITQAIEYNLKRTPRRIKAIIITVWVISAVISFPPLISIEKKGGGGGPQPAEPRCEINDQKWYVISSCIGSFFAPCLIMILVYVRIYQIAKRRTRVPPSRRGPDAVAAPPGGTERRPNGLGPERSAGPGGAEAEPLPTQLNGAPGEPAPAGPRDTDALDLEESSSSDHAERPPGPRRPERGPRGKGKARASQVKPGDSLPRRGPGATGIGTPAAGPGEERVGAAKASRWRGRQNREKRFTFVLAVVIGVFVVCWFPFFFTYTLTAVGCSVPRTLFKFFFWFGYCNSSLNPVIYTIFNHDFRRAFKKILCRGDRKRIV
Type: functional, cell-based
Kindly supply the reported AC50 values for the records listed here.

State its AC50 for this compound: COc1ccc(-c2ccc3cc(C(=O)O)ccc3c2)cc1C12CC3CC(CC(C3)C1)C2 > 30 µM

State its AC50 for this compound: Cc1nnc2n1-c1ccc(Cl)cc1C(c1ccccc1Cl)=NC2 > 10 µM

Return AC50 (reported value) for this compound: C=CCC1(CC(C)C)C(=O)NC(=O)NC1=O > 10 µM

Identify measured AC50 corresponding to N[C@@H]1[C@H]2CN(c3nc4c(cc3F)c(=O)c(C(=O)O)cn4-c3ccc(F)cc3F)C[C@@H]12 > 30 µM

Note AC50 for the compound shown: O=C(O)C[C@H](O)C[C@H](O)/C=C/c1c(C2CC2)nc2ccccc2c1-c1ccc(F)cc1 > 10 µM

Supply reported AC50 belonging to this compound: CCCCCNC(=N)N/N=C/c1c[nH]c2ccc(OC)cc12 > 30 µM

Complete the entry with AC50 for CC(=O)NCCCS(=O)(=O)O [ACAMPROSATE] > 30 µM

Give recorded AC50. Cc1cc(C)c(NC(=O)CN(CC(=O)O)CC(=O)O)c(C)c1Br > 30 µM

// fetch AC50 given entry CCC(C(=O)O)c1ccc(N2Cc3ccccc3C2=O)cc1 (stereo not given) > 30 µM

Read off the recorded AC50 for CCCC(C)C1(CC)C(=O)NC(=O)NC1=O (stereo not given) > 10 µM

Provide one value: measured AC50 of NCC(=O)CCC(=O)O > 30 µM

Give the reported value of AC50 for this record: CCCCc1ncc(/C=C(\Cc2cccs2)C(=O)O)n1Cc1ccc(C(=O)O)cc1 > 10 µM

Return reported AC50. Input compound: CC(=O)O[C@H]1CC[C@@]2(C)C(=CC[C@@H]3[C@@H]2CC[C@]2(C)C(c4cccnc4)=CC[C@@H]32)C1 [ABIRATERONE ACETATE] > 30 µM

Note down AC50 recorded for Fc1ccc(C(c2ccccc2)(c2ccccc2F)n2ccnc2)cc1 (stereo not given) > 30 µM

Answer with the recorded AC50 for the compound listed here: O=C(O[C@H]1C[C@H]2CC[C@@H](C1)[N+]21CCCC1)C(O)(c1ccccc1)c1ccccc1 > 30 µM

Look up and report measured AC50 for this entry: CC(CC(c1ccccc1)c1ccccc1)NC(C)(C)C (stereo not given) > 30 µM

Provide AC50 value for the following compound: C#C[C@]1(O)CC[C@H]2[C@@H]3[C@H](C)CC4=C(CCC(=O)C4)[C@H]3CC[C@@]21C > 30 µM

Look up and state reported AC50 for C=CCC1(C(C)CC)C(=O)NC(=O)NC1=O (stereo not given) > 10 µM

Query AC50 for CCOC(=O)[N-]c1cn(N2CCOCC2)n[o+]1 > 30 µM

Give the value of AC50 reported for the following: CC(C)OC(=O)CCC/C=C\C[C@@H]1[C@@H](CC[C@@H](O)CCc2ccccc2)[C@H](O)C[C@@H]1O > 30 µM

Report AC50 for C[C@@H](O)[C@H]1C(=O)N2C(C(=O)O)=C(S[C@@H]3CN[C@H](C(=O)N(C)C)C3)[C@H](C)[C@H]12 > 300 µM

Please indicate AC50 recorded for COc1ccccc1OCCNCC(O)c1ccc(C)c(S(N)(=O)=O)c1 (stereo not given) > 30 µM

Determine its reported AC50: CCCc1nc(C(C)(C)O)c(C(=O)OCc2oc(=O)oc2C)n1Cc1ccc(-c2ccccc2-c2nnn[nH]2)cc1 > 10 µM

Tell me its AC50 given Nc1nc(/C(=C/CC(=O)O)C(=O)N[C@@H]2C(=O)N3C(C(=O)O)=CCS[C@H]23)cs1 as the entry. > 30 µM

Specify measured AC50 for Cc1cn([C@H]2C=C[C@@H](CO)O2)c(=O)[nH]c1=O . > 10 µM

Output AC50 of CCCC(=O)O[C@]1(C(=O)CO)CC[C@H]2[C@@H]3CCC4=CC(=O)CC[C@]4(C)[C@H]3[C@@H](O)C[C@@]21C [HYDROCORTISONE BUTYRATE] > 10 µM

Determine from records and report AC50 for O=P1(NCCCl)OCCCN1CCCl (stereo not given) [IFOSFAMIDE] > 30 µM

Item CN(C)CCC=C1c2ccccc2C=Cc2ccccc21 : provide AC50 > 10 µM

# return recorded AC50 for entry Cc1ccc(-c2cc(C(F)(F)F)nn2-c2ccc(S(N)(=O)=O)cc2)cc1 > 10 µM

Given NCC(CC(=O)O)c1ccc(Cl)cc1 (stereo not given) , respond with its AC50. > 30 µM

Hello, please tell me recorded AC50 for this one: C1CCC(C(CC2CCCCN2)C2CCCCC2)CC1 (stereo not given) 11 µM

Identify measured AC50 corresponding to CCCN(CCC)C(=O)C(CCC(=O)O)NC(=O)c1ccccc1 (stereo not given) [PROGLUMIDE] > 10 µM

Specify measured AC50 for CC1(C)O[C@@H]2C[C@H]3[C@@H]4CCC5=CC(=O)C=C[C@]5(C)[C@H]4[C@@H](O)C[C@]3(C)[C@]2(C(=O)CO)O1 [DESONIDE] . > 10 µM

For CNC(=O)c1ccccc1Sc1ccc2c(/C=C/c3ccccn3)n[nH]c2c1 , write its AC50. > 30 µM

Tell us which AC50 value is on record for O=C(O)CCCCCCNC1c2ccccc2CCc2ccccc21 > 30 µM
